Endpoint summary: pKi, system: Carbonic anhydrase 14 (Homo sapiens, UniProt Q9ULX7), multiple sources combined.
Sequence (Q9ULX7 whole entry): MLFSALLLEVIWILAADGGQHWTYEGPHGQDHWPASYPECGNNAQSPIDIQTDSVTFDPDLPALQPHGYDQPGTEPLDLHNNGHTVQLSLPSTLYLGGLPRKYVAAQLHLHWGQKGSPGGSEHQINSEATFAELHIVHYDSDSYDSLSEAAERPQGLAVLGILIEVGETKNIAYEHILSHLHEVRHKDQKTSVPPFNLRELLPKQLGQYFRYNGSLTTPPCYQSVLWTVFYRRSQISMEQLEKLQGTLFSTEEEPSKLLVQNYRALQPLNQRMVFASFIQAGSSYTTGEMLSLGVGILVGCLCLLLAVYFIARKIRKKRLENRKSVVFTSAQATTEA
Recall that pKi is obtained by taking minus log10 of the concentration measured in molar.

Sample records with pKi:
O=C(O)/C=C/c1ccc(O)cc1: 5.18
CC(C)CC(=O)OC[C@H]1O[C@@H](n2cc(-c3ccc(S(N)(=O)=O)cc3)nn2)[C@H](OC(=O)CC(C)C)[C@@H](OC(=O)CC(C)C)[C@H]1OC(=O)CC(C)C: 7.80

Per the reported Carbonic anhydrase 14 (Homo sapiens, UniProt Q9ULX7) data, "COC(=O)CNS(=O)(=O)NC(=O)OC(C)(C)C" has pKi of 5.23

Entry "CCCOc1ccc2c(c1)CCN=C2c1ccc(S(N)(=O)=O)cc1" under Carbonic anhydrase 14 (Homo sapiens, UniProt Q9ULX7) had pKi of 8.06
